SYSTEM TESTED: MdomOR30a (co-expressed with MdomOrco) (Musca domestica, UniProt A0A1I8MP03)
Sequence (A0A1I8MP03 1-373): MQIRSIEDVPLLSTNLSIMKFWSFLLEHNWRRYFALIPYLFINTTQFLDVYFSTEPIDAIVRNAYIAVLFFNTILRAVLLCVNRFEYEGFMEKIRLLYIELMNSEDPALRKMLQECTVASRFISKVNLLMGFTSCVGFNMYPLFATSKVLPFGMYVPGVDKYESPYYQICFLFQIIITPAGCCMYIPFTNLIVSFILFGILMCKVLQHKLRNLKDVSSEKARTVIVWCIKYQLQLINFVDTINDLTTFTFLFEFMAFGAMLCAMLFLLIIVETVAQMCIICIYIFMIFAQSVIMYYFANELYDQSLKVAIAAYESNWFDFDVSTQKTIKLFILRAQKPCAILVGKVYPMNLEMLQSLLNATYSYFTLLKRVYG
Sequence (I0E1X6 1-478 partner): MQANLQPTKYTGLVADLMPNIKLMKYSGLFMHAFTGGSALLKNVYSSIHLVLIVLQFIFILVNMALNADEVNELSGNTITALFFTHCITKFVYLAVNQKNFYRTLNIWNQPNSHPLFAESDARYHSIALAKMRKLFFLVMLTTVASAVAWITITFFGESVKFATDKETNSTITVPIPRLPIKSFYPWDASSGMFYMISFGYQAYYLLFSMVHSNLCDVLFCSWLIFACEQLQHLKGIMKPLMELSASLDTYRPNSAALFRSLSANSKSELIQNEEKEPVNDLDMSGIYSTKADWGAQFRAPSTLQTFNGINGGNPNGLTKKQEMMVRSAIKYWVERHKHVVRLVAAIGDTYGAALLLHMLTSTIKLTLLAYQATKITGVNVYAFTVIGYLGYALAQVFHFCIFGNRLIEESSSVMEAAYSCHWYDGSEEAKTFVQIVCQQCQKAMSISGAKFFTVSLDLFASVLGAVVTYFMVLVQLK
EXPERIMENT SUMMARY: two-electrode voltage clamp, Xenopus oocytes, odorant-induced currents

COMPOUND: Cc1[nH]c2ccccc2c1C [2,3-dimethylindole]
EC50 / µM: 7.04
//
COMPOUND: Cc1c[nH]c2ccccc12 [3-methylindole]
EC50 / µM: 0.331
//
COMPOUND: c1ccc2[nH]ccc2c1 [indole]
EC50 / µM: 5.2
